Reported melting point is given for each of the following compounds.

COMPOUND	melting point
CCCNC(=O)c1c(-c2ccccc2)nn(CC)c(=O)c1N	141 to 143 °C
CC(C)c1cc(NC(N)=O)c(=O)n(C)n1 [Compound 39b]	248 to 251 °C
Nc1cc(-c2ccsc2)n[nH]c1=O [Compound 37a]	> 300 °C
CCCCn1nc(-c2ccccc2)cc(NC(N)=O)c1=O [Compound 25f]	265 to 267 °C
Cn1nc(-c2ccccc2O)cc(NC(N)=O)c1=O	278 to 280 °C
CCC(=O)Nc1cc(-c2ccccc2)nn(C)c1=O [Compound 29b]	210 to 211 °C

[ask] Which melting point value is on record for Cn1nc(-c2ccc(N)cc2)cc(N)c1=O [Compound 42b] ?
[reply] 208 to 209 °C

[ask] Which melting point value is on record for CC(C)n1nc(-c2ccccc2)cc(N)c1=O [Compound 24d] ?
[reply] 122 to 124 °C

[ask] Which melting point value is on record for Cn1nc(-c2ccccc2)cc(NC(N)=O)c1=O [Compound 25a] ?
[reply] > 300 °C

[ask] Which melting point value is on record for CCCCn1nc(-c2ccccc2)cc(N)c1=O [Compound 24f] ?
[reply] 67 to 69 °C

[ask] Which melting point value is on record for Cn1nc(-c2ccccc2)cc(Nc2cccc(C#N)c2)c1=O [Compound 30a] ?
[reply] 234 to 235 °C

[ask] Which melting point value is on record for Nc1cc(C2CCCCC2)n[nH]c1=O [Compound 37b, 4-Amino-6-cyclohexylpyridazin-3(2H)-one] ?
[reply] 284 to 287 °C

[ask] Which melting point value is on record for "CSc1nnc(-c2ccccc2)cc1N" ?
[reply] 168 to 170 °C

[ask] Which melting point value is on record for CCCC(=O)Nc1cc(-c2ccccc2)nn(C)c1=O [Compound 29d] ?
[reply] 187 to 189 °C

[ask] Which melting point value is on record for CC(C)n1nc(-c2ccccc2)cc(NC(N)=O)c1=O [Compound 25d] ?
[reply] 260 to 263 °C

[ask] Which melting point value is on record for "CCCNC(=O)c1c(-c2ccccc2)n[nH]c(=O)c1N" ?
[reply] 228 to 230 °C

[ask] Which melting point value is on record for "Cc1nn(-c2ccccc2)c(=O)c(N)c1-c1ccn[nH]1" ?
[reply] 119 to 121 °C

[ask] Which melting point value is on record for "CCn1nc(-c2ccccc2)c(C(=O)Nc2ccccc2)c(N)c1=O" ?
[reply] 172 to 173 °C

[ask] Which melting point value is on record for Cn1nc(-c2ccsc2)cc(N)c1=O [Compound 38a] ?
[reply] 178 to 179 °C

[ask] Which melting point value is on record for "Cc1cc(NC(N)=O)c(=O)n(-c2ccccc2)n1" ?
[reply] 288 to 290 °C

[ask] Which melting point value is on record for "CC(=O)N1CCN(C(=O)c2ccc(Nc3cc(-c4ccccc4)nn(C)c3=O)cc2)CC1" ?
[reply] 213 to 215 °C

[ask] Which melting point value is on record for "Cc1nn(-c2ccccc2)c(=O)c(N)c1C(N)=O" ?
[reply] 247 to 249 °C

[ask] Which melting point value is on record for "NC(=O)c1c(-c2ccccc2)nn(C2CCCCC2)c(=O)c1N" ?
[reply] 125 to 128 °C

[ask] Which melting point value is on record for "Cc1nn(-c2ccccc2)c(=O)c(N)c1C#N" ?
[reply] 201 to 203 °C
